Cited source: the RNAGym collection of RNA variant scans (doi:10.1126/science.aae0568)

B1: tRNA (parent)
chain: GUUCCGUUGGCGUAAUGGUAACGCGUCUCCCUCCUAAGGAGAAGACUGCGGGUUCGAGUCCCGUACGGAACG

variants of: B1; assay: yeast fitness relative to wild type (ratio to wild type); higher = fitter; tRNA-Arg(CCU), competitive growth, 37 C, YPD
Variants at the floor of the assay were thinned out.
MEASURED PARAMETER: yeast fitness
Numbers only.

Sample records with yeast fitness:
1. A36U A70U    0.747
2. U32G A69C    0.848
3. G23C A42G    0.575
4. C46G G52A C66U    0.631
5. G6C C34U    0.648

// batch mode: one yeast fitness value per listed entry
1. U19C C27A A43G
2. C30G C34U A36U A65U
3. C4U C11U U35A
4. C30U C33G
5. G50C C61U

[0.606, 0.612, 0.523, 0.691, 0.609]
